biological target: hMR (Homo sapiens, UniProt P08235); construct: expressed in transfected cells; host or cells: HEK 293T; test: APRn selectivity: transactivation in HEK293T cells transiently expressing hMR; type: cell-based; settings: mean±SEM
Sequence (P08235 whole entry): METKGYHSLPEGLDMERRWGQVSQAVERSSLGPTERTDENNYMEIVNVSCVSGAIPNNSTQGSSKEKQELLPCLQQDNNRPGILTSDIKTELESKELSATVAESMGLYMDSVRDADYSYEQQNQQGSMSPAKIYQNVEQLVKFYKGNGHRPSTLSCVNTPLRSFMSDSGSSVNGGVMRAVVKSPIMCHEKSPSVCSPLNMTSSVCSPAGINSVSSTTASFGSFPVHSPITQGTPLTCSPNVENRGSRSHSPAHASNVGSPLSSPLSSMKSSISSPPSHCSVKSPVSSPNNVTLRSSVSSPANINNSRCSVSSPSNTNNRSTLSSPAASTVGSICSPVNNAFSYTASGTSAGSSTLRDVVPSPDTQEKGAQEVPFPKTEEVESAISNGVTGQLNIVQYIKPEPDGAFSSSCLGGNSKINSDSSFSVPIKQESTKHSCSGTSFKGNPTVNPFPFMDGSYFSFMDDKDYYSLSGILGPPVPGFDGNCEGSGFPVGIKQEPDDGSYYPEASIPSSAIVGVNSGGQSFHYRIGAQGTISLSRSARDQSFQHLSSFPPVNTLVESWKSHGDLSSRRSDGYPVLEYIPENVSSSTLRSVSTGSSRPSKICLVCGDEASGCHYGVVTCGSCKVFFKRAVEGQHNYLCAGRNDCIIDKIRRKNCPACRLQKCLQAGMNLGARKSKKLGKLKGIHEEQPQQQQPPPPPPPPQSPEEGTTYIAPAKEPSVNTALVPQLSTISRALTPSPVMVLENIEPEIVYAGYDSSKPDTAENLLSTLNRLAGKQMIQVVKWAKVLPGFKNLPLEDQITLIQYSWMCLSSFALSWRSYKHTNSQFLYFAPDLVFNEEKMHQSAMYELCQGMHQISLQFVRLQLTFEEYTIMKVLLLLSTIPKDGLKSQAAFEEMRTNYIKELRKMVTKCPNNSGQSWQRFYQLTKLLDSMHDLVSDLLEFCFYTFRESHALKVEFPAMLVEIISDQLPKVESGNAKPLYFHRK
# MR Agonist efficacy (%) per entry
# number only, unit % dropped from output

CC(=O)[C@H]1CC[C@H]2[C@@H]3CC=C4C[C@@H](F)CC[C@]4(C)[C@H]3CC[C@]12C	0.53
CC#C[C@]1(O)CCC2C3CC[C@H]4CCCC[C@]4(C)C3CC[C@@]21C (stereo partly shown)	0.57
C[C@]12CC[C@H](F)C[C@@H]1CC[C@@H]1[C@@H]2CC[C@]2(C)[C@@H](O)CC[C@@H]12	0.57

Inquiry: Field request: MR Agonist efficacy (%) | item: C[C@]12CCC3C(CC=C4C[C@@H](F)CC[C@@H]43)C1CCC2=O (stereo partly shown)
Reply text: 0.50

Inquiry: And the next one, C[C@@H]1CCC2C3CC=C4C[C@@H](F)CC[C@]4(C)C3CC[C@]2(C)[C@H]1F (stereo partly shown) ?
Reply text: 0.57

Inquiry: And the next one, CC#C[C@]1(O)CCC2C3CC=C4C[C@@H](F)CC[C@]4(C)C3CC[C@@]21C (stereo partly shown) ?
Reply text: 0.47

Inquiry: And the next one, CC#C[C@]1(O)CCC2C3CC[C@H]4CCCC[C@@H]4C3CC[C@@]21C (stereo partly shown) ?
Reply text: 0.53

---

# GR Antagonist efficacy (%) per entry
target: hGR (Homo sapiens); construct: expressed in transfected cells; host or cells: HEK 293T; experiment: APRn selectivity: transactivation in HEK293T cells transiently expressing hGR; type: cell-based; conditions: HEK293T transiently expressing hGR, dexamethasone 10^−9 M, mean±SEM
Sequence (P04150 whole entry): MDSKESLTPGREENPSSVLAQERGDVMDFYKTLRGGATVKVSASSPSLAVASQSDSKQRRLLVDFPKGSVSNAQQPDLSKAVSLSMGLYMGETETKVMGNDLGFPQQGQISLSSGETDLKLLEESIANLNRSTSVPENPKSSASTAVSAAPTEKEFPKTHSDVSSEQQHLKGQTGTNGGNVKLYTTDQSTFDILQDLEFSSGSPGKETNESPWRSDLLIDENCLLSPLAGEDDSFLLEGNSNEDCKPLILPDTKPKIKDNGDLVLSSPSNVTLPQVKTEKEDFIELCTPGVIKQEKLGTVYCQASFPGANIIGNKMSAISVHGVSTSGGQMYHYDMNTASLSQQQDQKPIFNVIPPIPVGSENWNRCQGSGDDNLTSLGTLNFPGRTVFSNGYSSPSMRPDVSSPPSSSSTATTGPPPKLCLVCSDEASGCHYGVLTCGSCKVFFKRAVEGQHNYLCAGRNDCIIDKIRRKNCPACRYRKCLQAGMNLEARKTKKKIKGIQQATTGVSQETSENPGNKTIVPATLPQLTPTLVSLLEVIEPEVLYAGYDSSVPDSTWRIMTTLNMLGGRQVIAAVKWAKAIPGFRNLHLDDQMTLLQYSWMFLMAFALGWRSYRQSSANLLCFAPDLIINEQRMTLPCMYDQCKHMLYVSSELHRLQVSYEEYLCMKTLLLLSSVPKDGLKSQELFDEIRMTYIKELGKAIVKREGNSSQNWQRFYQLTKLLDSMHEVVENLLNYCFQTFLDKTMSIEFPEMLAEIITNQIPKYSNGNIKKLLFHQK
# number only, unit % dropped from output

Inquiry: Field request: GR Antagonist efficacy (%) | item: C#C[C@]1(O)CCC2C3CC=C4C[C@@H](F)CC[C@@H]4C3CC[C@@]21C (stereo partly shown) [APR-50]
Reply text: 7.4

---

Target: UniProt:P06401
Sequence (P06401 whole entry): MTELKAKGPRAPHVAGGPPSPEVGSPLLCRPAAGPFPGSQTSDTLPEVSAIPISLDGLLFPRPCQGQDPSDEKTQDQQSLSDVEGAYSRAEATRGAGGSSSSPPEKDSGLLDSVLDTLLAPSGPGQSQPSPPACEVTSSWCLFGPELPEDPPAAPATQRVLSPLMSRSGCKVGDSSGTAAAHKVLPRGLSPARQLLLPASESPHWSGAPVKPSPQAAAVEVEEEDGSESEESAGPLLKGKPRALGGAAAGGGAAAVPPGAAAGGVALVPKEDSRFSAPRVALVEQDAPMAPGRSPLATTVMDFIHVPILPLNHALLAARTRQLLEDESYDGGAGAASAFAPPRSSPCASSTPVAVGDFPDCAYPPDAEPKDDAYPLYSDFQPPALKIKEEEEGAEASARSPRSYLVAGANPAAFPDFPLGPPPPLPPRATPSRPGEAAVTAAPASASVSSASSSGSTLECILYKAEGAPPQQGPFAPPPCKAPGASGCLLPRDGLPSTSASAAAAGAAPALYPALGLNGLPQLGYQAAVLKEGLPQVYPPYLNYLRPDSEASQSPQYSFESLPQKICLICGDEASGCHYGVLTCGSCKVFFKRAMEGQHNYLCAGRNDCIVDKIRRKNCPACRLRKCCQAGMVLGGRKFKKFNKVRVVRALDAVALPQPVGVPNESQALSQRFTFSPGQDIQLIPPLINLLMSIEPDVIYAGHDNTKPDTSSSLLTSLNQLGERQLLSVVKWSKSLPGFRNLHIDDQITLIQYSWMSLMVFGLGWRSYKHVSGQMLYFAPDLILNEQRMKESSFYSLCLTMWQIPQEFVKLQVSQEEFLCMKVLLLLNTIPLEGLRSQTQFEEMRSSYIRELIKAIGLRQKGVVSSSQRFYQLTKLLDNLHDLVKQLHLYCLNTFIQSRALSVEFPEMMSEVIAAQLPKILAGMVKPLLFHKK
Test: PR transactivation assay (GRE2-Luc) in HEK293T cells transiently expressing hPRB
Type: cell-based
Set-up: expressed in transfected cells; host or cells: HEK 293T
Conditions: series 1 (no C3 substituent), HEK293T, APRn 1 μM, FIG. 1
Experimental: PR Transactivation Assays in HEK 293T. HEK 293T cells were routinely cultured in a high-glucose DMEM medium (Invitrogene, Cergy Pontoise, France), 20 mM HEPES, 2 mM glutamine, 1× non essential amino acids, 100 U/mL penicillin and 100 μg/mL streptomycin supplemented with 10% foetal calf serum (FCS) in a humidified atmosphere at 37° C. and with 5% CO2. […] The luciferase activities were quantified by using a Mithras LB940 reader microplates (Berthold). […]
value.kind: hPRB agonist/antagonist character (in words)

C#C[C@]1(O)CCC2C3CC[C@H]4CCCC[C@@H]4C3CC[C@@]21C (stereo partly drawn) [APR-56, 17α-Ethynyl-19-nor-5-androstan-17β-ol]	full antagonists
C#C[C@]1(O)CCC2C3CC[C@H]4CCCC[C@]4(C)C3CC[C@@]21C (stereo partly drawn) [APR-32, 17α-Ethynyl-5α-androstan-17β-ol]	full antagonists
CC#C[C@]1(O)CCC2C3CC[C@H]4CCCC[C@]4(C)C3CC[C@@]21C (stereo partly drawn) [APR-42, 17α-(1-Propynyl)-5α-androstan-17β-ol]	full antagonists
C[C@]12CCC3C(CC[C@H]4CCCC[C@H]34)C1CC[C@@H]2O (stereo partly drawn) [APR-52, 19-nor-5-Androstan-17β-ol]	full antagonists
CC(=O)O[C@@H](C)[C@H]1CC[C@H]2[C@@H]3CC[C@H]4CCCC[C@]4(C)[C@H]3CC[C@]12C [APR-13, 20-Acetoxy-5α-pregnane]	full antagonists

Inquiry: Field request: hPRB agonist/antagonist character (in words) | item: CC(=O)[C@H]1CC[C@H]2[C@@H]3CC=C4C=CCC[C@]4(C)[C@H]3CC[C@]12C [APR-12, Pregn-3,5-dien-20-one]
Reply text: partial antagonist

Inquiry: And the next one, CC1CCC2C3CC=C4C=CCC[C@]4(C)C3CC[C@]2(C)[C@H]1F (stereo partly shown) [APR-08] ?
Reply text: partial antagonist

Hey, just so you know, these numbers are from patent US20130203718A1.
